Target: UniProt P62942
Experiment: rotamase inhibition assay (N-succinyl-Ala-Ala-Pro-Phe-p-nitroanilide, chymotrypsin-coupled)
Type: biochemical
Conditions: apparent Ki; NI = no inhibition at the concentrations tested; read-out: Rotamase Ki(app)
RESULT_TYPE: Ki (nM)
Write it as a number; the unit nM goes unstated.

# example entries with known answers
[[record]]
molecule = "COc1cc(C(=O)C(=O)N2C3CCCC2C(=O)N(CCCCc2ccccc2)C3=O)cc(OC)c1OC [Compound 35]"
reported_measurement = 73

[[record]]
molecule = "C=CCC(CC=C)C(=O)OC[C@H](CN1CC2CCCC(C1=O)N2C(=O)C(=O)C1(COC(=O)COC)CCCC1)OCc1ccccc1 (stereo partly shown) [Compound 110]"
reported_measurement = 86

[[record]]
molecule = "COc1cc(C(=O)C(=O)N2C3CCCC2C(=O)N(CCOCc2ccccc2)C3)cc(OC)c1OC (stereo not shown) [Compound 7]"
reported_measurement = 160

[[record]]
molecule = "COc1cc(C(=O)C(=O)N2C3CCCC2C(=O)N(C(CO)COCc2ccccc2)C3)cc(OC)c1OC (stereo not shown) [Compound 51]"
reported_measurement = 4000

[[record]]
molecule = "COCOC1(C(=O)C(=O)N2C3CCC[C@@H]2[C@@H]2Cc4c(cc(OC)cc4OC)CN2C3=O)CCCC1 [Compound 136]"
reported_measurement = 2400

[[record]]
molecule = "CCCC(CCC)C(=O)OC[C@@H](CN1CC2CCCC(C1=O)N2C(=O)C(=O)c1cc(OC)c(OC)c(OC)c1)OCc1ccccc1 (stereo partly shown) [Compound 46]"
reported_measurement = 448


Lookup: I am curious: what Ki value has been reported for CCC(CC)(COC(C)=O)C(=O)C(=O)N1C2CCCC1C(=O)N(CCCCc1ccccc1)C2 (stereo not shown) [Compound 61] ?
Found: 790

----------
Molecular target: FKBP12 (Homo sapiens)
Sequence (P62942 whole entry, species assumed): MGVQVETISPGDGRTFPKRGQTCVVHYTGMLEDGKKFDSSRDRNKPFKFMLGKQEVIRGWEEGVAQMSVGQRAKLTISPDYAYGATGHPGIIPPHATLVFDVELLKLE
Test: rotamase inhibition assay (N-succinyl-Ala-Ala-Pro-Phe-p-nitroanilide, chymotrypsin-coupled)
Format: biochemical
Settings: apparent Ki; NI = no inhibition at the concentrations tested; read-out: Rotamase Ki(app)
Procedure: In the rotamase inhibition assay, isomerization of an artificial substrate N-succinyl-Ala-Ala-Pro-Phe-p-nitroanilide is followed spectrophotometrically. The assay includes the cis form of the substrate, FKBP12, the compound being tested, and chymotrypsin. Chymotrypsin is able to cleave p-nitroaniline from the trans form of the substrate, but not from the cis form. Release of p-nitroaniline is measured spectrophotometrically. […]
RESULT_TYPE: Ki

Consider the following illustrative entries.
[[record]]
compound = "COC[C@@H]1CC[C@@H](C)[C@](O)(C(=O)C(=O)N2C3CCCC2C(=O)N(Cc2ccc4ccccc4c2)C3)C1 (some centres unmarked)"
reported_measurement = "1300 nM"

[[record]]
compound = "COc1cc(OC)cc(N2C=C3C4CCCC(C(=O)N3CC2=O)N4C(=O)C(=O)C2(OC)CCCC2)c1 (centres unmarked)"
reported_measurement = "530 nM"

[[record]]
compound = "CCC(C)(C)C(=O)C(=O)N1C2CCCC1C1=CN(C3CCCC3)C(=O)CN1C2=O (centres unmarked)"
reported_measurement = "1000 nM"

[[record]]
compound = "COc1cc(C(=O)C(=O)N2C3CCCC2C2OCCN2C3=O)cc(OC)c1OC (centres unmarked)"
reported_measurement = "1400 nM"

[[record]]
compound = "COc1cc(C(=O)C(=O)N2C3CCCC2C(=O)N(C2CCCCC2)C3)cc(OC)c1OC (centres unmarked)"
reported_measurement = "3000 nM"


Lookup: Consider the compound shown here: CC(=O)OCC1(C(=O)C(=O)N2C3CCCC2C2=CN(C4CCCC4)C(=O)CN2C3=O)CCCC1 (centres unmarked) What is its recorded Ki?
Found: 780 nM

Lookup: Reported Ki for `COc1cc(C(=O)C(=O)N2C3CCCC2C(=O)N(Cc2ccccc2)C3=O)cc(OC)c1OC` : what is it?
Found: 206 nM

Lookup: Fill in: Ki of COc1ccc(OC[C@@H]2CC[C@H](N3CC4CCCC(C3=O)N4C(=O)C(=O)c3cc(OC)c(OC)c(OC)c3)C2)cc1 (some centres unmarked) is ___
Found: 520 nM
